- assayTarget: GAL4-PPARγ (Homo sapiens)
- Construct: PPARγ (amino acids 203-506); expressed in transfected cells
- Sequence (P37231 203-505 limits assumed): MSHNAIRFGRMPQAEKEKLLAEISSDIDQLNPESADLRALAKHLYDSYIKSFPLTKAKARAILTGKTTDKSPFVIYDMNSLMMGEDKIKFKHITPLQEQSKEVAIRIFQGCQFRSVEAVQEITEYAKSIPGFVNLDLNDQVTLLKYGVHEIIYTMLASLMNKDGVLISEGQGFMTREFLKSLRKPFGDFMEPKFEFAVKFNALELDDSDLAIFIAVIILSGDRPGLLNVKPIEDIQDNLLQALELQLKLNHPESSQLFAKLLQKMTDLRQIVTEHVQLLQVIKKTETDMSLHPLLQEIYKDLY
- measurementDescription: Cellular PPAR transactivation assay, GAL4-PPARγ chimera in CHO-K1 cells
- Assay type: cell-based
- reportedConditions: CHO-K1; maximum effect relative to reference compound (Example 73 of EP 1 452 521-A1 = 100%); read-out: PPARγ efficacy
experimentalEndpoint: Emax (%)

a. COC(c1ccc(Cl)c(NC(=O)[C@H](c2ccc(Cl)cc2)[C@@H](C)C(F)(F)F)c1)C1(C(=O)O)CCC1 (single isomer, unassigned) [Example 107]
b. C[C@H]([C@H](C(=O)Nc1cc(CC2(C(=O)O)CC2)ccc1F)c1ccc(C(C)(F)F)cc1)C(F)(F)F [Example 38]
c. CCCOc1ccc(C(=O)NCc2cc(CC3(C(=O)O)CCCO3)ccc2OCC)c(Cl)c1 (stereo not drawn) [Example 73 of EP 1 452 521-A1, reference compound]
Re-order the entries listed above so their Emax values fall from first to last. Rank the items, then write their labels in that order.
c, a, b

* * *

- assayTarget: soluble guanylate cyclase (sGC) (Rattus norvegicus, UniProt P20595)
- Construct: made in house; host or cells: Sf9 insect cells (baculovirus)
- measurementDescription: Stimulation of sGC enzyme activity (PPi detection, luciferase)
- Format: biochemical
- reportedConditions: sGC enzyme in vitro
experimentalEndpoint: MEC (minimum effective concentration), activating action at the sGC enzyme (nM)

Record excerpt, results attached:
- compound: "O=C(Nc1cc(CC2(C(=O)O)CC2)ccc1F)[C@H](c1ccc(Cl)cc1)C1CCCC1 (single isomer, unassigned)"
  assayTarget: "soluble guanylate cyclase (sGC) (Rattus norvegicus, UniProt P20595)"
  recordedMeasurement: 2.2
- compound: "O=C(Nc1cc(CC2(C(=O)O)CC2)ccc1F)[C@H](c1ccc(Cl)cc1)C1CCCC1(F)F (single isomer, unassigned; (+))"
  assayTarget: "soluble guanylate cyclase (sGC) (Rattus norvegicus, UniProt P20595)"
  recordedMeasurement: 2.6
- compound: "COc1cc([C@@H](C(=O)Nc2cc(CC3(C(=O)O)CC3)ccc2Cl)[C@@H](C)C(F)(F)F)ccc1Cl"
  assayTarget: "soluble guanylate cyclase (sGC) (Rattus norvegicus, UniProt P20595)"
  recordedMeasurement: 3.4
- compound: "[2H]C([2H])([2H])OC(c1ccc(Cl)c(NC(=O)[C@H](c2ccc(Cl)cc2)[C@@H](C)C(F)(F)F)c1)C1(C(=O)O)CC1 (single isomer, unassigned; (+))"
  assayTarget: "soluble guanylate cyclase (sGC) (Rattus norvegicus, UniProt P20595)"
  recordedMeasurement: 4.1

a. C[C@H]([C@H](C(=O)Nc1cc(CC2(C(=O)O)CC2)ccc1F)c1ccc(Cl)cc1)C(F)(F)F
b. COC(c1ccc(Cl)c(NC(=O)[C@H](c2ccc(Cl)cc2)[C@@H](C)C(F)(F)F)c1)C1(C(=O)O)CCC1 (single isomer, unassigned)
c. C[C@H]([C@H](C(=O)Nc1cc(CC2(C(=O)O)CC2)ccc1Cl)c1ccc(Cl)cc1F)C(F)(F)F
Rank by MEC (minimum effective concentration), activating action at the sGC enzyme (largest to smallest). // format: requested-order list of labels
b, a, c

* * *

- assayTarget: sGC (Rattus norvegicus, UniProt P20595)
- Construct: expressed in transfected cells; host or cells: CHO reporter cell
- Sequence (P19686 whole entry partner): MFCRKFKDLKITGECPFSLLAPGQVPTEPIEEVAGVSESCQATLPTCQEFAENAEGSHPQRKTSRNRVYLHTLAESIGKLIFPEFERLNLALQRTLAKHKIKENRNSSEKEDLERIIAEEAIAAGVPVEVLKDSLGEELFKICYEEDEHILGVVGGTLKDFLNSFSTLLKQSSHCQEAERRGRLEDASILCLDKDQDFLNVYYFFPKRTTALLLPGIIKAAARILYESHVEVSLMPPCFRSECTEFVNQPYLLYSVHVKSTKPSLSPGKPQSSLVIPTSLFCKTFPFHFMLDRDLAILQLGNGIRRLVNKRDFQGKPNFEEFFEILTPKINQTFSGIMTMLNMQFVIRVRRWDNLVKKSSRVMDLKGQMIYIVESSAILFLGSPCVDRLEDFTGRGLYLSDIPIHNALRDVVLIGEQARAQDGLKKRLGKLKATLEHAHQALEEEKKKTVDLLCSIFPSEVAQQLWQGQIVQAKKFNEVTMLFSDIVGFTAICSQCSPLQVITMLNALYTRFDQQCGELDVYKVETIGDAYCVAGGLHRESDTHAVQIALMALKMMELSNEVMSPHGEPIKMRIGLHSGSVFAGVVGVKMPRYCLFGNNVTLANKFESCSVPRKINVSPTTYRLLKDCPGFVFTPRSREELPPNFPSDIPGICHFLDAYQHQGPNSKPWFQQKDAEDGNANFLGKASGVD
- Sequence (P20595 whole entry): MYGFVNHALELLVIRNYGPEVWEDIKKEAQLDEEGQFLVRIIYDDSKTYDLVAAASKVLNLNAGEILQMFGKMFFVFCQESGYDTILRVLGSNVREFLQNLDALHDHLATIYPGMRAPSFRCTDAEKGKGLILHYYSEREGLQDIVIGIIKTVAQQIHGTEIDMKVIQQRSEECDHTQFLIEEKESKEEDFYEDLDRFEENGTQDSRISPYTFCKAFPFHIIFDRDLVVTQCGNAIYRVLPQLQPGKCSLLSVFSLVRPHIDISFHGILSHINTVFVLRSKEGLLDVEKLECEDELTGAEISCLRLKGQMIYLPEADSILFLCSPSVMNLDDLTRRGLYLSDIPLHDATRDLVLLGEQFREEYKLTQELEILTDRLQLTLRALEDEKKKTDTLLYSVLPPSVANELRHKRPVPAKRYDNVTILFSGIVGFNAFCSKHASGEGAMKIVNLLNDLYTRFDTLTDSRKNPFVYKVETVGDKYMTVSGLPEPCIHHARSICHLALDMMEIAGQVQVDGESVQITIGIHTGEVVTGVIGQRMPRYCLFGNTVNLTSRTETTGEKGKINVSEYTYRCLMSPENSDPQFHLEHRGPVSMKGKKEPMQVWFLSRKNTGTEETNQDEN
- measurementDescription: Action at a recombinant guanylate cyclase reporter cell line (CHO reporter cell)
- Assay type: cell-based
- reportedConditions: CHO reporter cell in vitro
experimentalEndpoint: MEC (minimum effective concentration), sGC-activating activity in the CHO reporter cell (nM)

Consider the following illustrative entries.
- compound: "C[C@H]([C@H](C(=O)Nc1cc(CC2(C(=O)O)CC2)ccc1F)c1ccc(C(C)(F)F)cc1)C(F)(F)F"
  recordedMeasurement: 0.3
- compound: "CCOC(c1ccc(Cl)c(NC(=O)[C@H](c2ccc(Cl)cc2)[C@@H](C)C(F)(F)F)c1)C1(C(=O)O)CCC1 (single isomer, unassigned)"
  recordedMeasurement: 0.3
- compound: "O=C(Nc1cccc(CC2(C(=O)O)CC2)c1)C(c1ccc(C=C(F)F)cc1)C1CCCC1 (racemic)"
  recordedMeasurement: 100
- compound: "COC(c1ccc(Cl)c(NC(=O)[C@H](c2ccc(Cl)cc2)[C@@H](C)C(F)(F)F)c1)C1(C(=O)O)CC1 (single isomer, unassigned; (+))"
  recordedMeasurement: 3

P. C[C@H]([C@H](C(=O)Nc1cc(C(O)C2(C(=O)O)CC2)ccc1Cl)c1ccc(Cl)cc1)C(F)(F)F (single isomer, unassigned) [Example 103]
Q. O=C(Nc1cccc(CC2(C(=O)O)CC2)c1)C(c1ccc(C(F)(F)F)cc1)C1CCCC1 (racemic)
R. CC(C(C(=O)Nc1cc(CC2(C(=O)O)CC2)ccc1Cl)c1ccc(CC(F)(F)F)cc1)C(F)(F)F (single isomer, unassigned) [Example 82]
In this exercise, place the 3 compounds in ascending sequence of their recorded MEC (minimum effective concentration), sGC-activating activity in the CHO reporter cell. Please express your ranking as an ordered list of the labels.
R, Q, P
